# Test Summary: Study 20170543 (CodeBreaK 100): sotorasib monotherapy pharmacokinetics
# Assay Conditions: human, plasma, oral, AUC0-24h, mean (CV %), monotherapy (n=32, CodeBreaK 100), comparison in Jun. 24, 2022 data cut-off

| Molecule | AUC(0-t) (ng·h/mL) |
| --- | --- |
| C=CC(=O)N1CCN(c2nc(=O)n(-c3c(C)ccnc3C(C)C)c3nc(-c4c(O)cccc4F)c(F)cc23)[C@@H](C)C1 (atropisomer, axis not shown; (M)) [sotorasib] | 65300 |

---

# Test Summary: Study 20170543 (CodeBreaK 100): sotorasib monotherapy pharmacokinetics
# Assay Conditions: human, plasma, oral, tmax, day 8; monotherapy (CodeBreaK 100), comparison in Aug. 6, 2021 data cut
Parameter: Tmax (h)

| Compound | Result |
| --- | --- |
| C=CC(=O)N1CCN(c2nc(=O)n(-c3c(C)ccnc3C(C)C)c3nc(-c4c(O)cccc4F)c(F)cc23)[C@@H](C)C1 (atropisomer, axis not shown; (M)) | 2 |

---

# Test Summary: Study 20170543 (CodeBreaK 100): sotorasib monotherapy pharmacokinetics
# Assay Conditions: human, plasma, oral, Cmax, day 8; monotherapy (CodeBreaK 100), comparison in Aug. 6, 2021 data cut
Parameter: Cmax (ng/mL)

| Compound | Display Unit | Result |
| --- | --- | --- |
| C=CC(=O)N1CCN(c2nc(=O)n(-c3c(C)ccnc3C(C)C)c3nc(-c4c(O)cccc4F)c(F)cc23)[C@@H](C)C1 (atropisomer, axis not shown; (M)) | ng/mL | 6500 |

---

# Test Summary: Study 20170543 (CodeBreaK 100): sotorasib monotherapy pharmacokinetics
# Assay Conditions: human, plasma, oral, AUC0-24h, day 1; monotherapy (CodeBreaK 100), comparison in Aug. 6, 2021 data cut

| Molecule | AUC(0-t) / µg·h/mL |
| --- | --- |
| C=CC(=O)N1CCN(c2nc(=O)n(-c3c(C)ccnc3C(C)C)c3nc(-c4c(O)cccc4F)c(F)cc23)[C@@H](C)C1 (atropisomer, axis not shown; (M)) | 103 |

---

# Test Summary: Study 20170543 (CodeBreaK 100): sotorasib monotherapy pharmacokinetics
# Assay Conditions: human, plasma, oral
Parameter: Tmax (h)

| Molecule | Result |
| --- | --- |
| C=CC(=O)N1CCN(c2nc(=O)n(-c3c(C)ccnc3C(C)C)c3nc(-c4c(O)cccc4F)c(F)cc23)[C@@H](C)C1 (atropisomer, axis not shown; (M)) [sotorasib] | 1.9 |

---

# Test Summary: Study 20170543 (CodeBreaK 100): sotorasib monotherapy pharmacokinetics
# Assay Conditions: human, plasma, oral, Cmax, day 1; monotherapy (CodeBreaK 100), comparison in Aug. 6, 2021 data cut
Parameter: Cmax

| Compound | Parameter | Result |
| --- | --- | --- |
| C=CC(=O)N1CCN(c2nc(=O)n(-c3c(C)ccnc3C(C)C)c3nc(-c4c(O)cccc4F)c(F)cc23)[C@@H](C)C1 (atropisomer, axis not shown; (M)) | Cmax | 9710 ng/mL |

---

# Test Summary: Study 20170543 (CodeBreaK 100): sotorasib monotherapy pharmacokinetics
# Assay Conditions: human, plasma, oral, tmax, median (range), monotherapy (n=32, CodeBreaK 100), comparison in Jun. 24, 2022 data cut-off

| Compound | Display Unit | Tmax |
| --- | --- | --- |
| C=CC(=O)N1CCN(c2nc(=O)n(-c3c(C)ccnc3C(C)C)c3nc(-c4c(O)cccc4F)c(F)cc23)[C@@H](C)C1 (atropisomer, axis not shown; (M)) | h | 2 |
